Data provenance is patent US20110082079A1.

Property: pEC50; scope: individual binders
# Experimental Target: T1, human serum albumin (HSA) (human, UniProt P02768 25-609, biotinylated)
# T1 construct: also called biotinylated HSA
# Test Protocol: competition SPA on biotinylated HSA beads; competitor 125I-labelled acylated GLP-1 analogue
pEC50: −log10 of the molar value. *1 amine or outer side, *2 acyl side, *3 side chain or, on linkers, in order; H or OH if unused. Where no end group is shown, it is not given here. Side-chain parts run from the residue outwards. [ ]: non-standard residue; d: D form. The star is where a group is joined. C20 diacid = O=C(O)CCCCCCCCCCCCCCCCCCC(=O)*; C18 diacid = O=C(O)CCCCCCCCCCCCCCCCC(=O)*; γGlu = O=C(O)[C@H](CCC(=O)[*:2])N[*:1]; Desaminohistidyl = O=C(CCc1c[nH]cn1)*; βAsp = O=C(O)[C@H](CC(=O)[*:2])N[*:1]; Dap = NC[C@H](N)C(=O)O; AEEA = NCCOCCOCC(=O)O; Aib = CC(C)(N)C(=O)O; Inp = O=C(O)C1CCNCC1

[[record]]
binder = "H[Aib]EGTFTSDVSSYLEEQAAREFIAK([AEEA-AEEA-βAsp-Inp-C20 diacid])LVRGRG"
value_measured = "6.40 to 6.70"

[[record]]
binder = "HXEGTFTSDVSSYLEEQAAREFIAWLVRGRK (not fully specified; Aib at 8; Lys37 is bound to the peptide through its epsilon amino group (epsilon-Lys37) and acylated at N-alpha with the side chain given in the name)"
value_measured = "6.40 to 6.70"

[[record]]
binder = "H[Aib]EGTFTSDVSSYLEEQAVREFIAK([AEEA-AEEA-γGlu-C18 diacid])LV[Dap](2‑(bis-carboxymethylamino)acetyl)-NH2 (GLP-1(7-34) = residues 1-28 of the entry)"
value_measured = "6.70 to 6.82"

[[record]]
binder = "H[Aib]EGTFTSDVSSYLEEQAVREFIAK([AEEA-AEEA-γGlu-C18 diacid])LVRRRR"
value_measured = "< 5.70"


Request: // pEC50 lookup, key: H[Aib]EGTFTSDVSSYLEEQAAREFIAWLVR[Aib]RK([AEEA-AEEA-γGlu-C18 diacid])
Response: 6.82 to 7.00

Request: // pEC50 lookup, key: H[Aib]EGTFTSDVSSYLEEQAAREFIEWLVKGK([AEEA-AEEA-C18 diacid])GE-NH2
Response: 6.40 to 6.70

Request: // pEC50 lookup, key: [Desaminohistidyl]AEGTFTSDVSSYLEEQAAREFIEWLVRGRGEK([AEEA-AEEA-γGlu-C18 diacid]) [[desaminoHis7, Glu22, Arg26, Glu30, …]
Response: 5.70 to 5.82
